Cited source for all entries: patent US11351173B2

Assay: Compound solubility in water
Conditions: water, Compound Solubility in Water
Answer each item with its documented log10(solubility).
The base-10 logarithm of solubility, taken with solubility in µg/mL, is what appears here.

Solved cases (8 shown):
COMPOUND	RECORDED_METRIC	TEST_VALUE
C#Cc1ccc(C(C)(C)NC(=O)c2ccn3c(COC)cc(COC)nc23)cc1 [III-156]	log10(solubility)	1.14
C#Cc1ccc(NC(=O)c2ccn3c(C)cc(C)nc23)c(OC)c1 [III-129]	log10(solubility)	-0.52
Cc1cc(O)n2ccc(C(=O)Nc3ccc(-c4cocn4)cc3)c2n1 [III-55]	log10(solubility)	0.26
CCCCO[C@H]1CC2CCC(C1)[C@H]2NC(=O)c1ccn2c(C)cc(C)nc12 [III-182]	log10(solubility)	-0.22
Cc1cc(C)n2ccc(C(=O)N[C@H]3CC[C@@H](Oc4cccs4)CC3)c2n1 [III-189]	log10(solubility)	0.00
CCCCO[C@H]1CC[C@H](NC(=O)c2ccn3c(C(C)C)cc(COC)nc23)CC1 [III-37]	log10(solubility)	1.26
C#Cc1cccc(C(C)(C)NC(=O)c2ccn3c(COC)cc(C)nc23)c1 [III-63]	log10(solubility)	-0.10
Cc1cc(C(F)F)nc2c(C(=O)NC3CCCc4ccccc43)ccn12 (stereo not drawn) [III-29]	log10(solubility)	-0.05

log10(solubility) reading for Cc1cc(C)n2ccc(C(=O)NC3CCC4(CCCCO4)CC3)c2n1 (stereo not drawn) [III-112] : 1.48

* * *

Target: glucocerebrosidase (Gcase) (Homo sapiens)
Construct: micellar solution containing 10 nM GCase and 100 nM saposin C
Sequence (P04062 40-536): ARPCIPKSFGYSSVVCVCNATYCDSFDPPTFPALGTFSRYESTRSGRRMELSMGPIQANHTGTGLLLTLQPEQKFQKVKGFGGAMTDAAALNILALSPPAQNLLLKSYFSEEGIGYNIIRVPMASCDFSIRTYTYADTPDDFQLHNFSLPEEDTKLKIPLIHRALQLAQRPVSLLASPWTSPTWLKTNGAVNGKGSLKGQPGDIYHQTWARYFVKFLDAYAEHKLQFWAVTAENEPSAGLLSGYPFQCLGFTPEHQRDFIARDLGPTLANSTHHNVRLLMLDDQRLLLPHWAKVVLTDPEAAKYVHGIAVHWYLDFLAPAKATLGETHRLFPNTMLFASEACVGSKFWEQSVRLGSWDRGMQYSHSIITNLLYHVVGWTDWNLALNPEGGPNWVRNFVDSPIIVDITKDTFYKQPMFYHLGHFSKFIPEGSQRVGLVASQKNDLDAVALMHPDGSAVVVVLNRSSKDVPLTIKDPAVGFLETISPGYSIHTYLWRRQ
Experiment: Glucocerebrosidase (Gcase) activation assay, 4-methylumbelliferyl-beta-D-glucopyranoside substrate, fluorescence readout
Type: biochemical
Settings: test compound at 0.1 μM; read-out: Percent Gcase Activation, 0.1 μM Test Compound
Answer each item with its documented activation at 0.1 µM.

Solved cases (5 shown):
COMPOUND	activation at 0.1 µM
Cc1cc(C)n2ccc(C(=O)NC3CCC(C(=O)N(C)C4CC4)CC3)c2n1 (stereo not drawn) [III-134]	< 10%
Cc1cc(C2CC2)n2ccc(C(=O)N[C@H]3CC[C@H](OCCCC(F)(F)F)CC3)c2n1 [III-46]	< 10%
Cc1cc(C)n2ccc(C(=O)NC3CCCc4ccncc43)c2n1 (stereo not drawn) [III-227]	< 10%
COc1cc(-c2cnco2)ccc1NC(=O)c1ccn2c(C)cc(C)nc12 [III-110]	> 20%
Cc1cc(C(F)F)n2ccc(C(=O)Nc3ccc(-c4cocn4)cc3)c2n1 [III-27]	> 20%

Lab note: each compound below needs its activation at 0.1 µM filled in.
1. COCc1cc(COC)n2ccc(C(=O)NC3(C)CCOc4cc(F)c(F)cc43)c2n1 (stereo not drawn) [III-155]
2. COc1ccccc1C(C)(C)NC(=O)c1ccn2c(C)cc(C)nc12 [III-233]
3. Cc1cc(C(F)(F)F)nc2c(C(=O)NC3CCC4(CCCCO4)C3)ccn12 (stereo not drawn) [III-248]
4. Cc1cc(C)n2ccc(C(=O)N[C@H]3CC[C@H](OCC4CC(F)(F)C4)CC3)c2n1 [III-95]

Reply |
1: 10 to 20%; 2: > 20%; 3: 10 to 20%; 4: 10 to 20%
